test: folding enthalpy; higher = less favourable; fluorescence melt of hairpins on a sequencing array, two-state fit; conditions: sodium 0.088 M
Use folding enthalpy to assign classes; range list: c1 = under -30 kcal/mol, c2 = from -30 kcal/mol up to -20 kcal/mol, c3 = -20 kcal/mol and over

- MACROMOLECULE SEQUENCE: "GATCCAGGTTTGGATC ((((((....))))))"
  ANSWER LABEL: "c1"
- MACROMOLECULE SEQUENCE: "GCTGACACGAAAGTGAGC (((..(((....))))))"
  ANSWER LABEL: "c3"
- MACROMOLECULE SEQUENCE: "GCGATGCGAAAGCGTAGC ((.(.((....)).).))"
  ANSWER LABEL: "c2"
- MACROMOLECULE SEQUENCE: "GATCGTTACACGATC ((((((...))))))"
  ANSWER LABEL: "c1"
- MACROMOLECULE SEQUENCE: "GAGTACGAAAGTAGACTC ((((((....)))..)))"
  ANSWER LABEL: "c3"
- MACROMOLECULE SEQUENCE: "CGGACGGAAACGTGGCCG ((((((....)))..)))"
  ANSWER LABEL: "c2"
- MACROMOLECULE SEQUENCE: "GCGTTTCGAAAGAACCGC (((.(((....))).)))"
  ANSWER LABEL: "c1"
- MACROMOLECULE SEQUENCE: "GAATGCGAAAGCAACTTC ((((((....)))..)))"
  ANSWER LABEL: "c3"
- MACROMOLECULE SEQUENCE: "GGTCCTGGAAACAGGGCC ((.((((....)))).))"
  ANSWER LABEL: "c1"
- MACROMOLECULE SEQUENCE: "GATCTGTTATCAGATC ((((((....))))))"
  ANSWER LABEL: "c1"
- MACROMOLECULE SEQUENCE: "GGATCGGGAAACCGACCC ((.((((....)))).))"
  ANSWER LABEL: "c1"
- MACROMOLECULE SEQUENCE: "GGGGATGGAAACGTCCTC (.(((.(....).))).)"
  ANSWER LABEL: "c2"
- MACROMOLECULE SEQUENCE: "GCTTAAGGAAACTTAGGC ((.((((....)))).))"
  ANSWER LABEL: "c2"
- MACROMOLECULE SEQUENCE: "GAGCTACGAAAGTATCTC (((.(((....))).)))"
  ANSWER LABEL: "c2"
- MACROMOLECULE SEQUENCE: "GCGATTACTCGC ((((....))))"
  ANSWER LABEL: "c2"
- MACROMOLECULE SEQUENCE: "GTGCTCCGAAAGGAACAC (((.(((....))).)))"
  ANSWER LABEL: "c1"
- MACROMOLECULE SEQUENCE: "GCACCACGAAAGTGTTGC (((.(((....))).)))"
  ANSWER LABEL: "c1"
- MACROMOLECULE SEQUENCE: "GCGGGTTTCCGC ((((....))))"
  ANSWER LABEL: "c2"
- MACROMOLECULE SEQUENCE: "GGTGAGGGAAACCTTGCC ((..(((....)))..))"
  ANSWER LABEL: "c2"
- MACROMOLECULE SEQUENCE: "GCCAGCGAAAGCTTTGGC ((((((....)))..)))"
  ANSWER LABEL: "c2"
- MACROMOLECULE SEQUENCE: "GTTTCGGGAAACCGAGAC ((.((((....)))).))"
  ANSWER LABEL: "c2"
- MACROMOLECULE SEQUENCE: "GATCAGCCCCTGATC ((((((...))))))"
  ANSWER LABEL: "c1"
- MACROMOLECULE SEQUENCE: "GAAGCCGAAAGGCATTC ((((((....))).)))"
  ANSWER LABEL: "c3"
- MACROMOLECULE SEQUENCE: "GAGATAACGAAAGTTCTC (((..(((....))))))"
  ANSWER LABEL: "c2"
- MACROMOLECULE SEQUENCE: "GATCTGCTATCAGATC ((((((....))))))"
  ANSWER LABEL: "c1"
- MACROMOLECULE SEQUENCE: "GGATACGAAAGTAGGTCC ((((((....)))..)))"
  ANSWER LABEL: "c3"
- MACROMOLECULE SEQUENCE: "GCATCGCGAAAGCCCTGC (((..((....))..)))"
  ANSWER LABEL: "c3"
- MACROMOLECULE SEQUENCE: "GGTGGCGAAAGCCCGACC ((((((....)))..)))"
  ANSWER LABEL: "c3"
- MACROMOLECULE SEQUENCE: "GGTTGGCGAAAGCCTACC (((.(((....))).)))"
  ANSWER LABEL: "c2"
- MACROMOLECULE SEQUENCE: "GCTTGACGAAAGTCAGC (((.(((....))))))"
  ANSWER LABEL: "c2"
- MACROMOLECULE SEQUENCE: "GTCATGCGAAAGCAGAC (((.(((....))))))"
  ANSWER LABEL: "c2"
- MACROMOLECULE SEQUENCE: "GCCTCCGGAAACGGAAGC ((.((((....)))).))"
  ANSWER LABEL: "c2"
- MACROMOLECULE SEQUENCE: "GCAATCGAAAGATTGTGC ((((((....)))..)))"
  ANSWER LABEL: "c2"
- MACROMOLECULE SEQUENCE: "GATCTAAGATAGATC ((((((...))))))"
  ANSWER LABEL: "c2"
- MACROMOLECULE SEQUENCE: "GTGTACGAAAGTAACCAC ((((((....)))..)))"
  ANSWER LABEL: "c3"
- MACROMOLECULE SEQUENCE: "GATCGGGTCACCGATC ((((((....))))))"
  ANSWER LABEL: "c1"
- MACROMOLECULE SEQUENCE: "GCTTCGCGAAAGCTACGC ((.(.((....)).).))"
  ANSWER LABEL: "c3"
- MACROMOLECULE SEQUENCE: "GATCCGAGCGCGGATC ((((((....))))))"
  ANSWER LABEL: "c1"
- MACROMOLECULE SEQUENCE: "GGAGATCGAAAGATTTCC (((.(((....))).)))"
  ANSWER LABEL: "c1"
- MACROMOLECULE SEQUENCE: "GCTAGGCGAAAGCATAGC ((((.((....)).))))"
  ANSWER LABEL: "c1"
- MACROMOLECULE SEQUENCE: "GATCAGAAAGCTGATC ((((((....))))))"
  ANSWER LABEL: "c1"
- MACROMOLECULE SEQUENCE: "GCGATCGGAAACAATCGC (((((.(....).)))))"
  ANSWER LABEL: "c1"
- MACROMOLECULE SEQUENCE: "GACCACGAAAGTGGCGTC ((((((....)))..)))"
  ANSWER LABEL: "c3"
- MACROMOLECULE SEQUENCE: "GTACACGGAAACGTGTAC (((((((....)))))))"
  ANSWER LABEL: "c1"
- MACROMOLECULE SEQUENCE: "GTCTACGAAAGTACTGAC ((((((....)))..)))"
  ANSWER LABEL: "c3"
- MACROMOLECULE SEQUENCE: "GCATACTCGAAAGAGTGC (((..(((....))))))"
  ANSWER LABEL: "c3"
- MACROMOLECULE SEQUENCE: "GATCCCGTTGGGATC ((((((...))))))"
  ANSWER LABEL: "c1"
- MACROMOLECULE SEQUENCE: "CCCTTGAAAAAGGG (((((....)))))"
  ANSWER LABEL: "c3"

* * *

assay: folding enthalpy; higher = less favourable; fluorescence melt of hairpins on a sequencing array, two-state fit; conditions: sodium 0.088 M

- MACROMOLECULE SEQUENCE: "GCCGCGCGAAAGCGACGC ((..(((....)))..))"
  folding enthalpy: "-11.9 kcal/mol"
- MACROMOLECULE SEQUENCE: "GGCACTTCGAAAGAAGCC (((..(((....))))))"
  folding enthalpy: "-9.16 kcal/mol"
- MACROMOLECULE SEQUENCE: "GTTGCGCGAAAGCGAAC (((.(((....))))))"
  folding enthalpy: "-13.4 kcal/mol"
- MACROMOLECULE SEQUENCE: "GAGAACGAAAGTTATCTC ((((((....)))..)))"
  folding enthalpy: "-26 kcal/mol"
- MACROMOLECULE SEQUENCE: "GATCGATACTCGATC ((((((...))))))"
  folding enthalpy: "-41.3 kcal/mol"
- MACROMOLECULE SEQUENCE: "GGAAGACGAAAGTCCTCC (((.(((....))).)))"
  folding enthalpy: "-21.4 kcal/mol"
